Every entry's value here was drawn from the PETadex activity labels (doi:10.1016/j.ijbiomac.2025.149745).

Property: Proxy for plastic degradation; scope: individual proteins
Substrate: PET
Experiment: Proxy for plastic degradation [kcat] (s⁻¹)
Conditions: pH 9
Please state the value as a number alone, without comment.

Here's what some known entries look like.
INSERT INTO measurements (protein, measure, reported) VALUES
  ('unnamed (protein) MDGVLWRVRTAALMAALLALAAWALWASPSVEAQSNPYQRGPNPTRSALTADGPFSVATYTVSRLSVSGFGGVIYYPTGTSLTFGGIAMSPGYTADASSLAWLGRRLASHGFVVLVINTNSRFDYPDSRASQLSAALNYLRTSSPSAVRARLDANRLAVAGHSMGGGGTLRIAEQNPSLKAAVPLTPWHTDKTFNTSVPVLIVGCEADTVAPVSQHAIPFYQNLPSTTPKVYVELDNASHFCPNSNNAAISVYTISWMKLWVDNDTRYRQFLCNVNDPALSDFRTNNRHCQCQ', 'Proxy for plastic degradation', 0.0031),
  ('unnamed (protein) MDGVLWRVRTAALMAALLALAAWALWASPSVEAQSNPYQRGPNPTRSALTADGPFSVATYTVSRLSVSGFGGVIYYPTGTSLTFGGIAMSPGYTADASSLAWLGRRLASHGFVVLVINTNSRFDYPDSRASQLSAALNYLRTSSPSAVRARLDANRLAVAGWSMGGGGTLRIAEQNPSLKAAVPLTPWHTDKTFNTSVPVLIVGAEADTVAPVSQHAIPFYQNLPSTTPKVYVELDNASHSAPNSNNAAISVYTISWMKLWVDNDTRYRQFLCNVNDPALSDFRTNNRHCQCQ', 'Proxy for plastic degradation', 0.018);

Next:
# return recorded Proxy for plastic degradation for input unnamed (protein) MDGVLWRVRTAALMAALLALAAWALWASPSVEAQSNPYQRGPNPTRSALTADGPFSVATYTVSRLSVSGFGGVIYYPTGTSLTFGGIAMSPGYTADASSLAWLGRRLASHGFVVLVINTNSRFDYPDSRASQLSAALNYLRTSSPSAVRARLDANRLAVAGWSMGGGGTLRIAEQNPSLKAAVPLTPWHTDKTFNTSVPVLIVGCEADTVAPVSQHAIPFYQNLPSTTPKVYVELDNASHSCPNSNNAAISVYTISWMKLWVDNDTRYRQFLCNVNDPALSDFRTNNRHCQCQ
0.0045
